Consider the following molecules; for each one, report its pEC50.
System: Human alphaherpesvirus 2
ASSAY_SUMMARY: Antiherpetic activity against HSV-2
Assay type: functional
MEASUREMENT_SETUP: Human alphaherpesvirus 2; read-out: ED50 (the source's name)
One number for each entry, as −log10 of the molar value.

Answered examples (2):
>>> df
                               entry_smiles  assay_result
0  O=c1ccn([C@@H]2O[C@H](CO)[C@@H](O)[C@H]2F)c(=O)[nH]1          5.22
1  Cc1cn([C@@H]2O[C@H](CO)[C@@H](O)[C@@H]2F)c(=O)nc1N          6.10

// batch mode: one pEC50 value per listed entry
1. Cc1cn([C@@H]2O[C@H](CO)[C@@H](O)[C@@H]2F)c(=O)[nH]c1=O
2. Nc1ccn([C@@H]2O[C@H](CO)[C@@H](O)[C@@H]2Cl)c(=O)n1
3. Nc1ccn([C@@H]2O[C@H](CO)[C@@H](O)[C@@H]2Br)c(=O)n1

Response:
1: 7.89; 2: 5.42; 3: 5.36
